Just for reference, ChEMBL document CHEMBL3593157 is where these values come from.

# Experiment: Lipophilicity, log D of the compound at pH 7.4
# Format: physicochemical
Outcome measure: logD
// keep it numeric: no unit symbol after the value

IN: Given `COc1ccc2c(c1)CCN(C(=O)CNCC1(O)CCCCC1)[C@@H]2C(C)C` , state its recorded logD.
OUT: 2.4

---

# Experiment: Inhibition of N-type calcium channel in human IMR-32 cells by FLIPR assay
# Assay type: cell-based
Please go through the items and note down their IC50.
The reply must contain the numeric value and, after it, the unit.

IN: Given CC(C)C1c2c(F)cccc2CCN1C(=O)CNCC1(O)CCCCC1 (stereo unspecified) , state its recorded IC50.
OUT: 1.5 µM

IN: Given `O=C(CNCC1(O)CCCCC1)N1CCc2ccccc2C1` , state its recorded IC50.
OUT: 8 µM

IN: Given COC(C)(C)C1c2ccccc2CCN1C(=O)CNCC1(O)CCCCC1 (stereo unspecified) , state its recorded IC50.
OUT: 3.7 µM

IN: Given CC(C)C1c2ccc(F)cc2CCN1C(=O)CNCC1(O)CCCCC1 (stereo unspecified) , state its recorded IC50.
OUT: 0.89 µM

IN: Given O=C(CNCC1(O)CCCCC1)N1CCc2ccccc2C1C1CCCC1 (stereo unspecified) , state its recorded IC50.
OUT: 0.99 µM

IN: Given Cc1cccc2c1C(C(C)C)N(C(=O)CNCC1(O)CCCCC1)CC2 (stereo unspecified) , state its recorded IC50.
OUT: 1.6 µM

IN: Given `O=C(CNCC1(O)CCCCC1)N1CCc2ccccc2[C@@H]1c1ccccc1` , state its recorded IC50.
OUT: 1 µM

IN: Given CCC(CC)C1c2ccccc2CCN1C(=O)CNCC1(O)CCCCC1 (stereo unspecified) , state its recorded IC50.
OUT: 0.73 µM

IN: Given COc1ccc2c(c1)C(C(C)C)N(C(=O)CNCC1(O)CCCCC1)CC2 (stereo unspecified) , state its recorded IC50.
OUT: 1.6 µM

IN: Given CC(C)(O)C1c2ccccc2CCN1C(=O)CNCC1(O)CCCCC1 (stereo unspecified) , state its recorded IC50.
OUT: 6.1 µM

IN: Given CC(C)C1c2ccccc2CCN1C(=O)CNCC1(O)CCCCC1 (stereo unspecified) , state its recorded IC50.
OUT: 1.1 µM
